- targetOrTestSystem: PIM-1 (Homo sapiens, UniProt P11309)
- Construct: histidine tag (C); made in house
- Sequence (P11309 whole entry): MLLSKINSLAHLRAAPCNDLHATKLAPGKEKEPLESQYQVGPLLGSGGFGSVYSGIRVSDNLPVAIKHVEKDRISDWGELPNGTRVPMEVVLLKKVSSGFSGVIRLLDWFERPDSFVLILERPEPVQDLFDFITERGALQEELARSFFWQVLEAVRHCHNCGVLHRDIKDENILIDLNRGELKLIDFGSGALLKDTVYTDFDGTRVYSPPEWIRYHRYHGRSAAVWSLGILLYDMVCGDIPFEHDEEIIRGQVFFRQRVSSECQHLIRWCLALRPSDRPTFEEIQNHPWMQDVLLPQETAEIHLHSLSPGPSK
- assayNotes: PIM-1 biochemical assay (ADP Hunter)
- setupConditions: PIM1; read-out: PIM-1 activity, IC50 (semi-quantitative class)
I'd appreciate it if you could supply IC50 values for the items below.

Examples with their reported IC50 follow.
>>> reportedmeasurement("COc1ncc2cc1NS(=O)(=O)c1cccc(c1)C(=O)NCc1cc(ccc1F)-c1ncnc3c1SC2=C3")
"> 1000 nM"
>>> reportedmeasurement("COc1ncc2cc1NS(=O)(=O)c1cccc(c1)C(=O)NCCn1cc(cn1)-c1ncnc3c1SC2=C3C")
"100 to 1000 nM"
>>> reportedmeasurement("O=C1NCc2cncc(c2)-c2cnc3sc(nn23)-c2cnc(O)c(c2)NS(=O)(=O)c2cccc1c2")
"100 to 1000 nM"

Kindly consider the entry below.
Query block: Look up IC50: `COc1ncc2cc1NS(=O)(=O)c1cc(c(F)cc1F)C(=O)NCc1cccc(c1)-c1cnn3ccc-2nc13`
Result block: > 1000 nM
